- targetOrSystem: UniProt:P41968
- Sequence (P41968 whole entry): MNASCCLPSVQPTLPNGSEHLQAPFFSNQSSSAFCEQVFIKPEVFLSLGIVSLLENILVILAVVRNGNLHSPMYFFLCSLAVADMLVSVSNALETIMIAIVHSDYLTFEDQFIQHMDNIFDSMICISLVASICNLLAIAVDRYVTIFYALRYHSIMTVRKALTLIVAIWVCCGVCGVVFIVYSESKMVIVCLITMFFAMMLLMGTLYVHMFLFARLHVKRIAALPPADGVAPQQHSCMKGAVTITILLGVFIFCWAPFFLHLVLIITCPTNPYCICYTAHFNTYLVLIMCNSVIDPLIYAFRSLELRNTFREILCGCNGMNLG
propertyLabel: AC50

>>> endpointvalue("CC(C)C(=O)c1c(C(C)C)nn2ccccc12 [IBUDILAST]")
"> 30 µM"
>>> endpointvalue("CN1C(=O)C(O)N=C(c2ccccc2)c2cc(Cl)ccc21 (configuration not stated) [TEMAZEPAM]")
"> 30 µM"
>>> endpointvalue("COc1ccc(CC(C)(C)NC[C@H](O)c2cc(O)cc3c2OCC(=O)N3)cc1 [OLODATEROL]")
"> 30 µM"
>>> endpointvalue("Cc1c(C(=O)NN2CCCCC2)nn(-c2ccc(Cl)cc2Cl)c1-c1ccc(Cl)cc1 [RIMONABANT]")
"15.9 µM"
>>> endpointvalue("O=C(O)/C=C/c1ccc(Cn2ccnc2)cc1 [OZAGREL]")
"> 30 µM"
>>> endpointvalue("Nc1nc(/C(=C/CC(=O)O)C(=O)N[C@@H]2C(=O)N3C(C(=O)O)=CCS[C@H]23)cs1 [CEFTIBUTEN]")
"> 30 µM"
>>> endpointvalue("NCC(CC(=O)O)c1ccc(Cl)cc1 (configuration not stated) [BACLOFEN]")
"> 30 µM"
>>> endpointvalue("C=CCN1CCCC1CNC(=O)c1cc(S(N)(=O)=O)cc(OC)c1OC (configuration not stated) [VERALIPRIDE]")
"> 30 µM"
>>> endpointvalue("CO/N=C(\\C(=O)N[C@@H]1C(=O)N2C(C(=O)O)=C(CSc3nnnn3C)CS[C@H]12)c1csc(N)n1 [CEFMENOXIME]")
"> 30 µM"
>>> endpointvalue("C[C@H](N)[C@H](O)c1cccc(O)c1 [METARAMINOL]")
"> 10 µM"
>>> endpointvalue("CC1(C)NC(=O)N(c2ccc([N+](=O)[O-])c(C(F)(F)F)c2)C1=O [NILUTAMIDE]")
"> 30 µM"
>>> endpointvalue("O=C1C(O)=C([C@H]2CC[C@H](c3ccc(Cl)cc3)CC2)C(=O)c2ccccc21 [ATOVAQUONE]")
"> 30 µM"
>>> endpointvalue("CNC1Cc2ccccc2N(C)c2ccccc21 (configuration not stated) [METAPRAMINE]")
"> 30 µM"
>>> endpointvalue("O=C(OCC(O)CO)c1ccccc1Nc1ccnc2cc(Cl)ccc12 (configuration not stated) [GLAFENINE]")
"> 30 µM"
>>> endpointvalue("Nc1ccn([C@H]2CC[C@@H](CO)O2)c(=O)n1 [ZALCITABINE]")
"> 10 µM"
>>> endpointvalue("C[C@H](CSC(=O)c1ccccc1)C(=O)N1C[C@@H](Sc2ccccc2)C[C@H]1C(=O)O [ZOFENOPRIL]")
"> 10 µM"
>>> endpointvalue("CC1(C)CCC(CN2CCN(c3ccc(C(=O)NS(=O)(=O)c4ccc(NCC5CCOCC5)c([N+](=O)[O-])c4)c(Oc4cnc5[nH]ccc5c4)c3)CC2)=C(c2ccc(Cl)cc2)C1 [VENETOCLAX]")
"> 30 µM"

Reference for the values: ChEMBL document CHEMBL5291721
